Biological target: T1, ECF34_1384
T1 chain: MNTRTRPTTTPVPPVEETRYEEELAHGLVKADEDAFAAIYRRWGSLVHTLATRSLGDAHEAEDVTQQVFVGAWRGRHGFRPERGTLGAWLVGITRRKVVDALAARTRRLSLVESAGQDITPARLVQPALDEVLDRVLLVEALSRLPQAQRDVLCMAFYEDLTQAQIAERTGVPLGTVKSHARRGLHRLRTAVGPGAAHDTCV
property_measured: fold repression
One number for each entry.

[
  {
    "binder": "AS35_3582 (protein) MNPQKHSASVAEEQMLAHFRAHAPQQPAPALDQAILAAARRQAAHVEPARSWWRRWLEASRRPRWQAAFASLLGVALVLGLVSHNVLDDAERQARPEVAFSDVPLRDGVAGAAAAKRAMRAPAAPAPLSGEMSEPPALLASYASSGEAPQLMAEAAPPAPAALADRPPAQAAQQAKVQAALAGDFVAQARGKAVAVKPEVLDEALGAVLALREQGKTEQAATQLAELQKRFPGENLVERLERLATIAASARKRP",
    "fold repression": 9.31
  },
  {
    "binder": "AS04_1609 (protein) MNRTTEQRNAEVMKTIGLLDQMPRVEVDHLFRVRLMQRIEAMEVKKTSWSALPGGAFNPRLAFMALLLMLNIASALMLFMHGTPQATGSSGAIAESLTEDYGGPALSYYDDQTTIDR",
    "fold repression": 2.28
  }
]

Entry AS01_3473 (protein) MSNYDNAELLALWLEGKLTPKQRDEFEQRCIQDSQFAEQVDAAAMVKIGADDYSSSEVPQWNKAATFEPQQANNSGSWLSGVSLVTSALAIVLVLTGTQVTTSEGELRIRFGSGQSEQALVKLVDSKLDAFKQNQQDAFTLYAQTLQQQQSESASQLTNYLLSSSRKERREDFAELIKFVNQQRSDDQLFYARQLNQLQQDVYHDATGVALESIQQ has what fold repression? 1.64

From: paper PMC3817407
